Test system: HCV genotype 2a
Assay: microbe, parasite or virus in culture
Assay type: cell-based
Settings: Hepatitis C virus, Huh7.5, HCV genotype 2a in Huh7.5 cells, luciferase reporter assay; read-out: 2a EC50
Please go through the items and note down their EC50.

// worked examples, EC50 included
- Structure string: "COc1ccc(-c2sc(NC3CCCCC3)nc2C)cc1S(=O)(=O)Nc1ccc(Cl)nc1"
  Target under test: "HCV genotype 2a"
  Reading: "200 to 1000 nM"
- Structure string: "COc1ccc(NS(=O)(=O)c2cc(-c3sc(NC4CCCCC4)nc3C)ccc2OC)c(C)c1.O=C(O)C(F)(F)F"
  Target under test: "HCV genotype 2a"
  Reading: "< 200 nM"

For each of the molecules below, state EC50.
1. COc1ccc(-c2sc(NC3CCCCC3)nc2C)cc1S(=O)(=O)NC1CCNCC1
2. COc1cc(C)c(NS(=O)(=O)c2cc(-c3sc(NC(=O)CC4CCCCC4)nc3C)ccc2OC)cn1

1: > 1000 nM; 2: 200 to 1000 nM

For each of the molecules below, state EC50.
1. COc1ccc(-c2sc(NC(=O)C3CCCC3)nc2C)cc1S(=O)(=O)Nc1cnc(OC)c(C)c1
2. COc1ccc(-c2sc(NC(=O)C3CCCC3)nc2C)cc1S(=O)(=O)Nc1ccc(CO)cc1
3. COc1ccc(-c2sc(CC3CCCCC3)nc2C)cc1S(=O)(=O)Nc1cnc(Cl)c(C)c1
4. COc1cc(C)c(NS(=O)(=O)c2cc(-c3sc(NC(C)C)nc3C)ccc2OC)cn1

1. 200 to 1000 nM
2. > 1000 nM
3. 200 to 1000 nM
4. 200 to 1000 nM
